Tested on: NCI-H1963;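 further: cell growth inhibition of the human line, determined with a cell viability assay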
procedure_details: cells
Format: functional, cell-based
settings: Homo sapiens
Description: SANGER: Inhibition of human NCI-H1963 cell growth in a cell viability assay.
pIC50: −log10 of the molar value.
pIC50 reference
property: pIC50

INSERT INTO results (compound, assay_value) VALUES
  ('CC(O)(CS(=O)(=O)c1ccc(F)cc1)C(=O)Nc1ccc(C#N)c(C(F)(F)F)c1 (configuration not stated) [BICALUTAMIDE]', '< 5.99'),
  ('Cc1nc(Nc2ncc(C(=O)Nc3c(C)cccc3Cl)s2)cc(N2CCN(CCO)CC2)n1 [DASATINIB]', '< 5.89');

====

Tested on: NCI-H2122;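 further: growth inhibition of the cells, read out with a cell viability assay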
procedure_details: cells
Format: functional, cell-based
settings: Homo sapiens
Description: SANGER: Inhibition of human NCI-H2122 cell growth in a cell viability assay.
property: IC50

INSERT INTO measurements (substance_smiles, assay_value) VALUES
  ('C[C@]1(c2nc3c(C(N)=O)cccc3[nH]2)CCCN1', '> 5000 nM'),
  ('CC[C@@]1(O)C(=O)OCc2c1cc1n(c2=O)Cc2cc3ccccc3nc2-1', '13 nM'),
  ('O=c1[nH]c2ccccc2n1C1CCN(Cc2ccc(-c3nc4cc5[nH]cnc5cc4nc3-c3ccccc3)cc2)CC1', '> 2560 nM'),
  ('CC(=O)c1c(C)c2cnc(Nc3ccc(N4CCNCC4)cn3)nc2n(C2CCCC2)c1=O', '> 4000 nM');

====

Test system: SCC-15
procedure_details: cells
Format: functional, cell-based
settings: Homo sapiens
Description: SANGER: Inhibition of human SCC-15 cell growth in a cell viability assay.
pIC50: −log10 of the molar value.
Please use 1 (yes) whenever pIC50 is not below 7, and 0 (no) whenever it is.

INSERT INTO results (compound, assigned_label) VALUES
  ('Fc1cc(-c2cc[nH]/c(=N/c3ccc(-n4cnc(N5CCOCC5)n4)cc3)n2)cc(N2CCOCC2)c1', '0 (no)'),
  ('COc1cc(Nc2c(C#N)cnc3cc(OCCCN4CCN(C)CC4)c(OC)cc23)c(Cl)cc1Cl [BOSUTINIB]', '0 (no)'),
  ('CCCS(=O)(=O)Nc1ccc(F)c(C(=O)c2c[nH]c3ncc(Cl)cc23)c1F [PLX-4720]', '0 (no)'),
  ('CCNC(=O)c1noc(-c2cc(C(C)C)c(O)cc2O)c1-c1ccc(CN2CCOCC2)cc1 [LUMINESPIB]', '1 (yes)'),
  ('NC(=O)c1ncn([C@@H]2O[C@H](COP(=O)(O)O)[C@@H](O)[C@H]2O)c1N', '0 (no)'),
  ('Cn1c(=O)n(-c2ccc(C(C)(C)C#N)cc2)c2c3cc(-c4cnc5ccccc5c4)ccc3ncc21 [DACTOLISIB]', '0 (no)'),
  ('CC[C@]1(O)C[C@@H]2CN(CCc3c([nH]c4ccccc34)[C@@](C(=O)OC)(c3cc4c(cc3OC)N(C)[C@H]3[C@@](O)(C(=O)OC)[C@H](OC(C)=O)[C@]5(CC)C=CCN6CC[C@]43[C@@H]65)C2)C1 [VINBLASTINE]', '1 (yes)'),
  ('CC(O)(CS(=O)(=O)c1ccc(F)cc1)C(=O)Nc1ccc(C#N)c(C(F)(F)F)c1 (stereo not drawn) [BICALUTAMIDE]', '0 (no)');

====

Reported IC50 is given for each of the following compounds.
Tested on: NCI-H446;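 further: growth inhibition of NCI-H446 cells determined by a cell viability assay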
procedure_details: cells
Type: functional, cell-based
settings: Homo sapiens
Description: SANGER: Inhibition of human NCI-H446 cell growth in a cell viability assay.
property: IC50 (µM)

INSERT INTO assay_data (compound, assayed_target, property, value_relation_sign, assay_value) VALUES
  ('Cn1c(=O)n(-c2ccc(C(C)(C)C#N)cc2)c2c3cc(-c4cnc5ccccc5c4)ccc3ncc21 [DACTOLISIB]', 'NCI-H446', 'IC50', '=', 0.0951),
  ('O=c1[nH]c2ccccc2n1C1CCN(Cc2ccc(-c3nc4cc5[nH]cnc5cc4nc3-c3ccccc3)cc2)CC1', 'NCI-H446', 'IC50', '>', 2.56),
  ('NC(=O)c1ncn([C@@H]2O[C@H](COP(=O)(O)O)[C@@H](O)[C@H]2O)c1N', 'NCI-H446', 'IC50', '>', 2000),
  ('COc1cc(Nc2c(C#N)cnc3cc(OCCCN4CCN(C)CC4)c(OC)cc23)c(Cl)cc1Cl [BOSUTINIB]', 'NCI-H446', 'IC50', '>', 2),
  ('Cc1n[nH]c2ccc(-c3cncc(OC[C@@H](N)Cc4c[nH]c5ccccc45)c3)cc12 [A-443654]', 'NCI-H446', 'IC50', '=', 0.395),
  ('CO[C@@]12[C@H](COC(N)=O)C3=C(C(=O)C(C)=C(N)C3=O)N1C[C@@H]1N[C@@H]12 [MITOMYCIN]', 'NCI-H446', 'IC50', '=', 12.4),
  ('C/C=C(/C)C(=O)O[C@H]1C(C)=C2[C@H]([C@@H]1OC(=O)CCCCCCC)[C@@](C)(OC(C)=O)C[C@H](OC(=O)CCC)[C@@]1(O)[C@H]2OC(=O)[C@@]1(C)O [THAPSIGARGIN]', 'NCI-H446', 'IC50', '=', 0.0354),
  ('Cc1ccc(NC(=O)c2cccc(C(C)(C)C#N)c2)cc1Nc1ccc2ncn(C)c(=O)c2c1', 'NCI-H446', 'IC50', '>', 4),
  ('CCNc1cc(N[C@H]2CC[C@@H](O)CC2)nc(Nc2ccc3c(ccn3Cc3ccccc3)c2)n1', 'NCI-H446', 'IC50', '>', 5.12),
  ('CNC(=O)c1ccccc1Sc1ccc2c(/C=C/c3ccccn3)n[nH]c2c1 [AXITINIB]', 'NCI-H446', 'IC50', '>', 2);

====

Tested on: TI-73;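 further: cell viability assay measuring how much compounds suppress growth of the cultured cell line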
procedure_details: cells
Assay type: functional, cell-based
settings: Homo sapiens
Description: SANGER: Inhibition of human TI-73 cell growth in a cell viability assay.
IC50: recorded values
property: IC50 (µM)

INSERT INTO results (compound, property, uom, value_relation_sign, assay_value) VALUES
  ('NC(=O)c1ncn([C@@H]2O[C@H](COP(=O)(O)O)[C@@H](O)[C@H]2O)c1N', 'IC50', 'µM', '=', 724),
  ('CCCS(=O)(=O)Nc1ccc(F)c(C(=O)c2c[nH]c3ncc(Cl)cc23)c1F [PLX-4720]', 'IC50', 'µM', '=', 6.01),
  ('O=c1cc(N2CCOCC2)oc2c(-c3cccc4c3sc3ccccc34)cccc12', 'IC50', 'µM', '>', 2);

====

System: KARPAS-299
procedure_details: cells
Format: functional, cell-based
settings: Homo sapiens
Description: SANGER: Inhibition of human KARPAS-299 cell growth in a cell viability assay.
property: IC50

INSERT INTO assay_data (compound, assay_value) VALUES
  ('COc1cc(Nc2c(C#N)cnc3cc(OCCCN4CCN(C)CC4)c(OC)cc23)c(Cl)cc1Cl', '> 2000 nM'),
  ('C/C=C(/C)C(=O)O[C@H]1C(C)=C2[C@H]([C@@H]1OC(=O)CCCCCCC)[C@@](C)(OC(C)=O)C[C@H](OC(=O)CCC)[C@@]1(O)[C@H]2OC(=O)[C@@]1(C)O', '35.6 nM'),
  ('COc1cc(C)c(Sc2cnc(NC(=O)c3ccc(CNC(C)C(C)(C)C)cc3)s2)cc1C(=O)N1CCN(C(C)=O)CC1 (configuration not stated)', '> 10200 nM'),
  ('CC(=O)c1c(C)c2cnc(Nc3ccc(N4CCNCC4)cn3)nc2n(C2CCCC2)c1=O', '> 4000 nM'),
  ('O=c1cc(N2CCOCC2)oc2c(-c3cccc4c3sc3ccccc34)cccc12', '> 2000 nM'),
  ('CC(O)(CS(=O)(=O)c1ccc(F)cc1)C(=O)Nc1ccc(C#N)c(C(F)(F)F)c1 (configuration not stated) [BICALUTAMIDE]', '> 1020 nM'),
  ('CCn1c(-c2nonc2N)nc2cnc(Oc3cccc(NC(=O)c4ccc(OCCN5CCOCC5)cc4)c3)cc21 [GSK-269962A]', '> 2500 nM');

====

Reported IC50 by item:
System: H-EMC-SS
procedure_details: cells
Assay type: functional, cell-based
settings: Homo sapiens
Description: SANGER: Inhibition of human H-EMC-SS cell growth in a cell viability assay.
property: IC50 (nM)

INSERT INTO results (compound, property, value_relation_sign, assay_value) VALUES
  ('C[C@]12O[C@H](C[C@]1(O)CO)n1c3ccccc3c3c4c(c5c6ccccc6n2c5c31)CNC4=O [LESTAURTINIB]', 'IC50', '=', 425),
  ('CC[C@@]1(O)C(=O)OCc2c1cc1n(c2=O)Cc2cc3ccccc3nc2-1 [CAMPTOTHECIN]', 'IC50', '=', 95.6),
  ('O=C(CCCCCCC(=O)Nc1ccccc1)NO [VORINOSTAT]', 'IC50', '>', 10000),
  ('C[C@]1(c2nc3c(C(N)=O)cccc3[nH]2)CCCN1 [VELIPARIB]', 'IC50', '>', 5000);

====

Tested on: 639-V
procedure_details: cells
Type: functional, cell-based
settings: Homo sapiens
Description: SANGER: Inhibition of human 639-V cell growth in a cell viability assay.
pIC50: −log10 of the molar value.
Entries and their pIC50 values follow.
property: pIC50

INSERT INTO measurements (substance_smiles, property, assay_value) VALUES
  ('Cn1c(=O)n(-c2ccc(C(C)(C)C#N)cc2)c2c3cc(-c4cnc5ccccc5c4)ccc3ncc21', 'pIC50', 7.07),
  ('CCNC(=O)c1noc(-c2cc(C(C)C)c(O)cc2O)c1-c1ccc(CN2CCOCC2)cc1', 'pIC50', 8.31),
  ('O=c1cc(N2CCOCC2)oc2c(-c3cccc4c3sc3ccccc34)cccc12', 'pIC50', 5.84),
  ('C/C=C(/C)C(=O)O[C@H]1C(C)=C2[C@H]([C@@H]1OC(=O)CCCCCCC)[C@@](C)(OC(C)=O)C[C@H](OC(=O)CCC)[C@@]1(O)[C@H]2OC(=O)[C@@]1(C)O', 'pIC50', 9.29);
